Test system: barnyardgrass (Echinochloa crus-galli)
Experiment: Test B postemergence
Assay type: in vivo
Conditions: Rate 500 g/ha, scale 0 to 100, 0 is no effect, 100 is complete control, 13 to 15 days
Please provide measured Plant response rating, Barnyardgrass for the entries that follow.

Would you be so kind as to report Plant response rating, Barnyardgrass for each listed record?
1. CCOc1ccn(C2CCN(c3cccc(C(F)(F)F)c3)C2=O)n1 (stereo not drawn) [Compound 61]
2. O=C1C(n2ccc(C3CCC3)n2)SCN1c1cccc(OC(F)F)c1 (stereo not drawn) [Compound 45]
3. CCCCC(CCCC)c1ccn(C2OCN(c3cccc(C(F)(F)F)c3)C2=O)n1 (stereo not drawn) [Compound 114]
4. CCOc1cccc(N2CCC(n3ccc(C(C)C)n3)C2=O)c1 (stereo not drawn) [Compound 128]

A.
1. 0
2. 100
3. 20
4. 80

List reported Plant response rating, Barnyardgrass for each of these compounds:
1. CCC(C)c1ccn(C2SCN(c3cccc(C(F)(F)F)c3)C2=O)n1 (stereo not drawn) [Compound 20]
2. CC(C)(C)c1ccn(C2CCN(c3cccc(OC(=O)C(F)(F)F)c3)C2=O)n1 (stereo not drawn) [Compound 94]
3. CC(C)(C)c1ccn(C2CCN(c3cccc(Br)c3)C2=O)n1 (stereo not drawn) [Compound 33]
4. CCOc1cc(N2CCC(n3ccc(C(C)(C)C)n3)C2=O)ccc1C (stereo not drawn) [Compound 106]
5. CC(C)(C)c1ccn(C2CCN(c3cccc(Cl)c3)C2=O)n1 (stereo not drawn) [Compound 43]

A.
1: 100; 2: 0; 3: 0; 4: 0; 5: 70

* * *

Test system: Nightshade
Assay: Test C preemergence
Format: in vivo
Conditions: Rate 62 g/ha, scale 0 to 100
From the text: […]
Plant response rating, Nightshade less than 20 is class 1; Plant response rating, Nightshade greater than or equal to 20 is class 0.

> print(dat)
                                   molecule  assigned.category
1  CCC(C)c1ccn(C2CCN(c3ccc(F)c(C(F)(F)F)c3)C2=O)n1 (centres unmarked) [Compound 145]            class 1

Q. Input CCC(CC)c1ccn(C2CCN(c3ccc(F)c(C(F)(F)F)c3)C2=O)n1 (centres unmarked) [Compound 144] ; condition: Plant response rating, Nightshade strictly below 20. Does it hold?
A. class 0

* * *

Test system: Sunflower
Assay: Test C preemergence
Type: in vivo
Conditions: Rate 62 g/ha, scale 0 to 100
parameter: Plant response rating, Sunflower

Some molecules with recorded Plant response rating, Sunflower:
> print(dat)
                                   molecule  system.name  result
1  CCOc1cccc(N2CCC(n3ccc(C(C)(C)C)n3)C2=O)c1 (centres unmarked) [Compound 130]    Sunflower      60
2  Cc1ccc(N2CCC(n3ccc(C(C)(C)C)n3)C2=O)cc1I (centres unmarked) [Compound 122]    Sunflower       0
3  CC(C)OC(=O)c1cccc(N2CCC(n3ccc(C(C)(C)C)n3)C2=O)c1 (centres unmarked) [Compound 124]    Sunflower       0
4  CCCC(C)c1ccn(C2SCN(c3cccc(C(F)(F)F)c3)C2=O)n1 (centres unmarked) [Compound 92]    Sunflower       0
5  CCOc1cccc(N2CCC(n3ccc(C(C)C)n3)C2=O)c1 (centres unmarked) [Compound 128]    Sunflower      20
6  CCCC(C)c1ccn(C2SCN(c3cccc(OC(F)(F)F)c3)C2=O)n1 (centres unmarked) [Compound 90]    Sunflower       0

Each of the following entries comes with a recorded value; kindly state Plant response rating, Sunflower for each.
1. CCC(CC)c1ccn(C2CCN(c3ccc(F)c(C(F)(F)F)c3)C2=O)n1 (centres unmarked) [Compound 144]
2. CCC(C)Oc1cccc(N2CCC(n3ccc(C(C)(C)C)n3)C2=O)c1 (centres unmarked) [Compound 127]

A.
1: 40; 2: 0

* * *

Tested on: lambsquarters (Chenopodium album)
Experiment: Test B postemergence
Format: in vivo
Conditions: Rate 125 g/ha, scale 0 to 100, 0 no effect, 100 complete control
Kindly state Plant response rating, Lambsquarters for each of the entries shown.
Give bare numbers.

Examples with their reported Plant response rating, Lambsquarters follow.
> print(dat)
                                   compound  numeric.result
1  CCC(CC)c1ccn(C2CCN(c3ccc(Cl)c(OC)c3)C2=O)n1 (centres unmarked) [Compound 118]              90
2  CC(C)c1cccc(N2CCC(n3ccc(C(C)(C)C)n3)C2=O)c1 (centres unmarked) [Compound 111]               0
3  CCCCC(CCCC)c1ccn(C2OCN(c3cccc(OC(F)(F)F)c3)C2=O)n1 (centres unmarked) [Compound 113]              30
4  CCC(C)c1ccn(C2CCN(c3ccc(Br)c(OC)c3)C2=O)n1 (centres unmarked) [Compound 142]              70

Here's the next entry for you.
Q. Note Plant response rating, Lambsquarters for the compound shown: CC(C)(C)c1ccn(C2CCN(c3ccc(F)c(C(F)(F)F)c3)C2=O)n1 (centres unmarked) [Compound 146]
A. 80

* * *

Test system: lambsquarters (Chenopodium album)
Test: Test B postemergence
Assay type: in vivo
Conditions: Rate 125 g/ha, scale 0 (no effect) to 100 (complete control), 13 to 15 days
Where Plant response rating, Lambsquarters equals or exceeds 10, the correct label is t; where it does not, the label is f.

Example entries and their recorded answers appear below.
> print(dat)
                                   molecule  assigned.category
1  CC(C)Oc1cccc(N2CCC(n3ccc(C(C)(C)C)n3)C2=O)c1 (centres unmarked)                  f
2  CC(C)(C)c1ccn(C2CCN(c3ccc(Cl)c(Cl)c3)C2=O)n1 (centres unmarked)                  t
3  Cc1c(F)cc(N2CCC(n3ccc(C(C)(C)C)n3)C2=O)cc1Br (centres unmarked)                  f
4  CC(C)c1ccn(C2SCN(c3cccc(C(F)(F)F)c3)C2=O)n1 (centres unmarked)                  t
5  COc1cc(N2CCC(n3ccc(C(C)(C)C)n3)C2=O)ccc1C (centres unmarked)                  t

Q. Check if Plant response rating, Lambsquarters >= 10 (inclusive). Item: O=C1C(n2ccc(C3CCC3)n2)OCN1c1cccc(C(F)(F)F)c1 (centres unmarked)
A. t

Q. Is Plant response rating, Lambsquarters at least 10? Consider CCC(CC)c1ccn(C2SCN(c3cccc(C(F)(F)F)c3)C2=O)n1 (centres unmarked)
A. t

Q. Could you tell me if the measured Plant response rating, Lambsquarters of CC1(C)CCc2cn(C3CCN(c4cccc(C(F)(F)F)c4)C3=O)nc21 (centres unmarked) reaches 10 or more?
A. f

Q. Check this molecule for Plant response rating, Lambsquarters at or above 10: COc1cccc(N2CCC(n3ccc(C(C)(C)C)n3)C2=O)c1 (centres unmarked)
A. f

Q. Does the reported Plant response rating, Lambsquarters for CC(C)(C)c1ccn(C2OCN(c3cccc(OC(F)(F)F)c3)C2=O)n1 (centres unmarked) fall at or above the 10 mark?
A. t

* * *

Test system: morning glory (Ipomoea hederacea)
Experiment: Test B preemergence
Type: in vivo
Conditions: Preemergence, Rate 500 g/ha; scale 0 to 100, 0 no effect, 100 complete control
parameter: Plant response rating, Morningglory

> print(dat)
                                   compound  result
1  CCC(CC)c1ccn(C2CCN(c3ccc(Br)c(OC)c3)C2=O)n1 (stereo not drawn)      70
2  CCC(C)c1ccn(C2OCN(c3cccc(OC(F)(F)F)c3)C2=O)n1 (stereo not drawn)       0
3  CCC(CC)c1ccn(C2SCN(c3cccc(C(F)(F)F)c3)C2=O)n1 (stereo not drawn) [Compound 25]      90
4  CC1(C)CCc2cn(C3CCN(c4cccc(C(F)(F)F)c4)C3=O)nc21 (stereo not drawn)       0
5  CC(C)c1ccn(C2SCN(c3cccc(C(F)(F)F)c3)C2=O)n1 (stereo not drawn)      60

Okay, here is my list. What is Plant response rating, Morningglory for each of these?
1. CC(C)c1ccn(C2SCN(c3cccc(OC(F)F)c3)C2=O)n1 (stereo not drawn)
2. CCC(CC)c1ccn(C2CCN(c3ccc(F)c(C(F)(F)F)c3)C2=O)n1 (stereo not drawn)
3. CC(C)(C)c1ccn(C2CCN(c3ccc(Cl)c(Br)c3)C2=O)n1 (stereo not drawn)
4. CC(C)c1ccn(C2OCN(c3cccc(C(F)(F)F)c3)C2=O)n1 (stereo not drawn)
5. CC(C)(C)c1ccn(C2SCN(c3cccc(C(F)(F)F)c3)C2=O)n1 (stereo not drawn)
6. Cc1ccc(N2CCC(n3ccc(C(C)(C)C)n3)C2=O)cc1C(F)(F)F (stereo not drawn)
7. CC(C)(C)c1ccn(C2CCN(c3ccc(F)c(C(F)(F)F)c3)C2=O)n1 (stereo not drawn)
8. Cc1ccc(N2CCC(n3ccc(C(C)(C)C)n3)C2=O)cc1OC(C)C (stereo not drawn)

A.
1: 0; 2: 0; 3: 0; 4: 0; 5: 40; 6: 0; 7: 40; 8: 0

For every record below, what is its Plant response rating, Morningglory?
1. COc1cc(N2CCC(n3ccc(C(C)C)n3)C2=O)ccc1C (stereo not drawn)
2. CC(C)OC(=O)c1cccc(N2CCC(n3ccc(C(C)(C)C)n3)C2=O)c1 (stereo not drawn)
3. CC(C)(C)c1ccn(C2CCN(c3ccc4c(c3)CCC4)C2=O)n1 (stereo not drawn)
4. CCC(CC)c1ccn(C2SCN(c3cccc(C(F)(F)F)c3)C2=O)n1 (stereo not drawn) [Compound 21]
5. COc1cccc(N2CCC(n3ccc(C(C)(C)C)n3)C2=O)c1 (stereo not drawn)

A.
1. 100
2. 60
3. 0
4. 100
5. 0
